Ref: the supplement of paper PMC7600603

Hi there, I'd appreciate the recorded drug sensitivity score for every entry that follows.
# Tested on: DLD1 NRF2-WT
# EXPERIMENT_DESCRIPTION: drug sensitivity score (DSS) viability (DSS score); higher = more sensitive; extreme values may be limits of the assay
# MEASUREMENT_PARAMETERS: 72 h; CellTiter-Glo viability
Answers are plain numbers.

Below: 2 compounds and their reported drug sensitivity score.
Nc1ncnc2c1c(-c1cccc(OCc3ccccc3)c1)cn2[C@H]1C[C@@H](CN2CCC2)C1 | 6.8
CC[C@H](CC#N)OC(=O)N[C@@H](C)c1cccc(NC(=O)Nc2ccc(-c3cnco3)c(OC)c2)c1 | 15.6

Please go through the list and note drug sensitivity score for each compound.
1. O=C(Nc1cc(Cl)cc2c1[nH]c1cnccc12)c1cccnc1
2. COc1cc2c(Nc3ccc(Cl)c(Cl)c3F)ncnc2cc1OC[C@@H]1C[C@@H]2CN(C)C[C@@H]2C1
3. Cc1cccc(-c2[nH]c(CNc3ccccc3F)nc2-c2ccc3ncnn3c2)n1
4. Cc1cn(-c2cc(NC(=O)c3ccc(C)c(Nc4nccc(-c5cnccn5)n4)c3)cc(C(F)(F)F)c2)cn1
5. C[C@]1(O)C[C@@H](c2nc(-c3ccc4ccc(-c5ccccc5)nc4c3)c3c(N)nccn32)C1
6. C[C@H]1O[C@@H](O[C@H]2[C@@H](O)C[C@H](O[C@H]3[C@@H](O)C[C@H](O[C@H]4CC[C@@]5(C)[C@H](CC[C@@H]6[C@@H]5C[C@@H](O)[C@]5(C)[C@@H](C7=CC(=O)OC7)CC[C@]65O)C4)O[C@@H]3C)O[C@@H]2C)C[C@H](O)[C@@H]1O
7. NCC(=O)Nc1ccc(-n2nc(C(F)(F)F)cc2-c2ccc3c(ccc4ccccc43)c2)cc1
8. CC[C@H](NC(=O)[C@H](C)NC)C(=O)N1C[C@@H](O)C[C@H]1Cc1c(-c2[nH]c3cc(F)ccc3c2C[C@@H]2C[C@H](O)CN2C(=O)[C@H](CC)NC(=O)[C@H](C)NC)[nH]c2cc(F)ccc12

Output:
1: 6.2; 2: 5.1; 3: 0; 4: 0; 5: 0; 6: 15.8; 7: 0.8; 8: 0.1

Value sought for every listed compound: drug sensitivity score.
1. CCCCc1nc2cc(/C=C/C(=O)NO)ccc2n1CCN(CC)CC
2. CC1(C)CCC(c2ccc(Cl)cc2)=C(CN2CCN(c3ccc(C(=O)NS(=O)(=O)c4ccc(N[C@H](CCN5CCOCC5)CSc5ccccc5)c(S(=O)(=O)C(F)(F)F)c4)cc3)CC2)C1
3. C=CC[C@@H]1/C=C(\C)C[C@H](C)C[C@H](OC)[C@H]2O[C@@](O)(C(=O)C(=O)N3CCCC[C@H]3C(=O)O[C@H](/C(C)=C/[C@@H]3CC[C@@H](O)[C@H](OC)C3)[C@H](C)[C@@H](O)CC1=O)[C@H](C)C[C@@H]2OC

Output:
[11.9, 2.1, 4.5]
